# System under test: T1, PUF4 RNA-binding domain (Saccharomyces cerevisiae, UniProt P25339 537-888)
# T1 sequence: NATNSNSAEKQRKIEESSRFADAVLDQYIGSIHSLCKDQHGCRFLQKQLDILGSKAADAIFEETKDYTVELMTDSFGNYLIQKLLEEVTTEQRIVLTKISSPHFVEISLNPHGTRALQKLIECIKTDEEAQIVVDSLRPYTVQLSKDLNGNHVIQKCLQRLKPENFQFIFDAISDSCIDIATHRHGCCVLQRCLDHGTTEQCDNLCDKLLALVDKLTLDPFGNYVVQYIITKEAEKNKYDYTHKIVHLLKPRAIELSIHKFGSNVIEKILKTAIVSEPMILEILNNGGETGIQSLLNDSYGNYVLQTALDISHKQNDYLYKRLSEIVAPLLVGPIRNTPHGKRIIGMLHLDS
# Protocol notes: Mg; RNA-MaP; 20 mM Na-HEPES pH 7.4, 30 mM KOAc, 0.75 mM MgCl2, 0.1% Tween-20, 5% glycerol, 0.1 mg/mL BSA, 2 mM DTT; 25 C; 0.0125-409.6 nM protein
# Conditions: tags: N-His6-TEV cleaved; C-SNAP kept, Cy3B-labelled; label: tethered on chip by stalled RNA polymerase
Item-by-item account of Kd
Value type: Kd (nM)

INSERT INTO measurements (binder, value_type, relation_operator, recorded_number) VALUES
  ('UCUCUUUGUAUCCUUAUCUCUU (ssRNA) [Ib_S1_P5E.1_K5.1_C5.1_H5.1_A5.1_[T6C]_[A7C]_F5.1_T5.1]', 'Kd', '=', 9.16),
  ('UCUCUUUGUAUAUUAUUAGCUCUCUU (ssRNA) [Id_ii_S1_P5E.3_K5.2_C5.2_[C-2T]_[T-1G]_H5.2_A5.1_F5.1_T5.2_[T11G]_[A12C]]', 'Kd', '=', 0.703),
  ('Id_ii_S2_P5E.3_K5.2_C5.2_[C-2A]_[T-1C]_H5.2_A5.1_F5.1_T5.2_[T11A] (ssRNA) RNA: UUUGAUUAAUAUGAUAUCGUUCUUUCUACUAUAUUAUUAAAUUCUUUCUCGAUAUCAUAUUAAUCUUU', 'Kd', '=', 319),
  ('Id_iii_S2_P3E.6_K3.2_C3.3_[T-1A]_H3.2_A3.1_F3.1_T3.2 (ssRNA) RNA: UUUGAUUAAUAUGAUAUCGUUCUUUCUUCAUAUAUAUAUAUUCUUUCUCGAUAUCAUAUUAAUCUUU', 'Kd', '=', 122),
  ('Id_ii_S2_P4E.4_K4.3_C4.2_[C-2T]_[T-1A]_H4.3_A4.1_F4.1_T4.2_[G10T]_[T11A] (ssRNA) RNA: UUUGAUUAAUAUGAUAUCGUUCUUUCUUAACACUAUUAUAUUCUUUCUCGAUAUCAUAUUAAUCUUU', 'Kd', '=', 882),
  ('Ie_S4_P4E.1_K4.1_C4.1_H4.1_[+1CTCT]_A4.1_F4.1_T4.1 (ssRNA) RNA: UUUGACAACUGAUCGUUCUUUCUUCUCUGUAUAUUAUUCUUUCUCGAUCAGUUGUCUUU', 'Kd', '=', 0.208),
  ('ACAAACAGUAUAUUAUUAAGACAAAC (ssRNA) [Id_ii_S3_P5E.3_K5.2_C5.2_[C-2A]_[T-1G]_H5.2_A5.1_F5.1_T5.2_[T11A]_[A12G]]', 'Kd', '=', 36.4),
  ('UCUCUUUGACACUAUUACUUCUCUU (ssRNA) [Id_ii_S1_P4E.4_K4.3_C4.2_[C-2T]_[T-1G]_H4.3_A4.1_F4.1_T4.2_[G10C]]', 'Kd', '>', 2300),
  ('UCUCUUAUUAUAUUAUUAACUCUCUU (ssRNA) [Id_ii_S1_P5E.3_K5.2_C5.2_[C-2A]_H5.2_A5.1_F5.1_T5.2_[T11A]_[A12C]]', 'Kd', '=', 159),
  ('Ic_S2_P3E.1_K3.1_C3.1_H3.1_A3.1_[T5A]_[A6T]_F3.1_[T7A]_[A8C]_T3.1 (ssRNA) RNA: UUUGAUUAAUAUGAUAUCGUUCUUUCUUGUAAUACUUCUUUCUCGAUAUCAUAUUAAUCUUU', 'Kd', '=', 158),
  ('Id_iii_S4_P3E.9_K3.5_C3.3_H3.1_A3.2_F3.2_T3.2_[A10C] (ssRNA) RNA: UUUGACAACUGAUCGUUCUUUCUUCUUGUAAAAAUCUUCUUUCUCGAUCAGUUGUCUUU', 'Kd', '=', 308),
  ('Ic_S4_P5E.1_K5.1_C5.1_H5.1_A5.1_[T5A]_[T6C]_[A7T]_F5.1_[T8C]_[T9C]_[A10C]_T5.1 (ssRNA) RNA: UUUGACAACUGAUCGUUCUUUCUUGUAACUCCCUUCUUUCUCGAUCAGUUGUCUUU', 'Kd', '=', 198);
